molecular target: human RAMP2 co-expressed with human CRLR on CHO-K1 cells (hCR2-CHOK1) (human, UniProt O60895 43-175; Q16602 23-461); test: cell-based or functional assay
Sequence (O60895 43-175, chain 1 of 2): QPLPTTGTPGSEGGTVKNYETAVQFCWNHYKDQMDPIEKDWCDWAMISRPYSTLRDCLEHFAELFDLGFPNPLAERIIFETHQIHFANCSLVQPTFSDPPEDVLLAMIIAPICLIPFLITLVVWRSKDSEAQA
Sequence (Q16602 23-461, chain 2 of 2): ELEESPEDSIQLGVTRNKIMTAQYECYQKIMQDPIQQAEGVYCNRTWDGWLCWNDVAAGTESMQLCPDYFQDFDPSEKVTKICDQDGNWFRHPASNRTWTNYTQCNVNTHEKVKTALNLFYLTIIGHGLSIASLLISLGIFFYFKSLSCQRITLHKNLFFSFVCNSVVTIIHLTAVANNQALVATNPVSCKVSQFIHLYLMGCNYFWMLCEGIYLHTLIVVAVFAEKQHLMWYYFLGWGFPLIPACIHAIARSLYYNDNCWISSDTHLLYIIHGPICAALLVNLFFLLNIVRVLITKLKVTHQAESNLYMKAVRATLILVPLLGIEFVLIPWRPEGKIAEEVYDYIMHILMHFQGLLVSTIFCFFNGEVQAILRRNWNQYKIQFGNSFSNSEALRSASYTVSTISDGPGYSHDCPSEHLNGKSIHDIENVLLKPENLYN
Label key: satisfied means IC50 values for cAMP inhibition under 0.2 nM; not satisfied means IC50 values for cAMP inhibition of 0.2 nM or more.

Past entries and their recorded results:
[[record]]
binder = "h25H4-4F9v8 (antibody, V domains shown) VH: EVQLVQSGAEVKKPGATVKISCKVSGYTFTGYFMNWVQQAPGKGLEWMGRNNPYNGDSIYAEKFQGRVTITADTSTDTAYMELSSLRSEDTAVYYCARLMIFDAYYAMDYWGQGTTVTVSS VL: DIQMTQSPSSLSASVGDRVTITCQASQDIRNYLNWYQQKPGKAPKLLIYYTSRLETGVPSRFSGSGSGTDFTFTISSLQPEDIATYYCQQDSKHPWTFGQGTKLEIK"
class_name = "not satisfied"

[[record]]
binder = "h25H4-4F9v1 (antibody, V domains shown) VH: EVQLVQSGPEVVKPGATVKISCKASGYSFTGYFMNWVKQAQGKSLESIGRNNPYNGDSIYNQKFKGKATLTVDKSTNTAYMELSSLRSEDTAVYYCARLMIFDAYYAMDYWGQGTTVTVSS VL: DIQMTQSTSSLSASLGDRVTITCRASQDIRNYLNWYQQKPGKTVKLLIYYTSRLHSGVPSRFSGSGSGTDYTLTISSLQQEDIATYFCQQDSKHPWTFGQGTKLEIK"
class_name = "satisfied"

[[record]]
binder = "h85H7-2B11v1 (antibody, V domains shown) VH: EVQLVQSGPEVVKPGASVKMSCKASGYSFSGYFMNWVKQAHGQSLEWIGRINPYNGDTFYNQKFKGKATLTVDKSTSTTYMELSSLRSEDTALYYCARLGIYDVYHYVMENWGQGTTVTVSS VL: DIQMTQSTSSLSASLGDRVTITCRASQDIRNYLNWYQQKPGKTVKLLIYYTSRLHSGVPSRFSGSGSGTDYTLTISSLQQEDIATYFCQQDSKNPWTFGQGTKLEIK"
class_name = "satisfied"

[[record]]
binder = "h25H4-4F9v4 (antibody, V domains shown) VH: EVQLVQSGAEVKKPGATVKISCKVSGYSFTGYFMNWVQQAPGKGLESIGRNNPYNGDSIYNEKFQGRVTITADTSTDTAYMELSSLRSEDTAVYYCARLMIFDAYYAMDYWGQGTTVTVSS VL: DIQMTQSPSSLSASVGDRVTITCRASQDIRNYLNWYQQKPGKAVKLLIYYTSRLHSGVPSRFSGSGSGTDYTLTISSLQPEDIATYFCQQDSKHPWTFGQGTKLEIK"
class_name = "satisfied"


Please let me know if h25H4-4F9v5 (antibody, V domains shown) VH: EVQLVQSGAEVKKPGATVKISCKVSGYSFTGYFMNWVQQAPGKGLESIGRNNPYNGDSIYNEKFQGRVTITADTSTDTAYMELSSLRSEDTAVYYCARLMIFDAYYAMDYWGQGTTVTVSS VL: DIQMTQSPSSLSASVGDRVTITCQASQDIRNYLNWYQQKPGKAVKLLIYYTSRLHSGVPSRFSGSGSGTDFTFTISSLQPEDIATYYCQQDSKHPWTFGQGTKLEIK shows IC50 values for cAMP inhibition below 0.2 nM.
not satisfied

Answer whether the binder h85H7-2B11v3 (antibody, V domains shown) VH: QVQLVQSGAEVKKPGASVKMSCKASGYSFSGYFMNWVKQAPGQGLEWIGRINPYNGDTFYNQKFKGRATLTVDTSTSTTYMELSSLRSEDTALYYCARLGIYDVYHYVMENWGQGTTVTVSS VL: DIQMTQSPSSLSASVGDRVTITCRASQDIRNYLNWYQQKPGKAVKLLIYYTSRLHSGVPSRFSGSGSGTDYTLTISSLQPEDIATYFCQQDSKNPWTFGQGTKLEIK has IC50 values for cAMP inhibition strictly less than 0.2 nM
satisfied
